Target: MMP2 (Homo sapiens)
Sequence (P08253 110-660): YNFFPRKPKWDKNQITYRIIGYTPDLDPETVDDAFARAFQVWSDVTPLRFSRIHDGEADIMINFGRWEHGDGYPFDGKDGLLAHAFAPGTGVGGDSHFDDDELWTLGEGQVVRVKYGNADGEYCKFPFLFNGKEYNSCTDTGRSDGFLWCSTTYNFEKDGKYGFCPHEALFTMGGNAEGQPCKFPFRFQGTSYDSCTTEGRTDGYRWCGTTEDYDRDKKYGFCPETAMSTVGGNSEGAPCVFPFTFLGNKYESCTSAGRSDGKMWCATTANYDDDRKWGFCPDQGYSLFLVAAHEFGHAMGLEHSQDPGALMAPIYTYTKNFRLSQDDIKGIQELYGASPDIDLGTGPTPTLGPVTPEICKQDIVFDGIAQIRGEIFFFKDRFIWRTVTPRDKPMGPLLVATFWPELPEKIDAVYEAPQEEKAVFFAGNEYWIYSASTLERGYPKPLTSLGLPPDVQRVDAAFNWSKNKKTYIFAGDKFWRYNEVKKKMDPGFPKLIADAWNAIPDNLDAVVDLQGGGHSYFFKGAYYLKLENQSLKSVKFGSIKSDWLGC
Experiment: Peptide probe cleavage assay (internally quenched MCA/DNP probes) with MMP2
Format: biochemical
Details: 20 μM internally quenched peptide probe, 20 nM protease, 37° C.
No end group written: not given here.
Probe Cleavage (pM/s) MMP2: recorded values
// note: answer is a bare numeric in pM/s

The substance CM RSPWGL: internally quenched MCA/DNP peptide probe of design SEQ ID NO: 698, CM RSPWGL (SEQ ID NO: 90) (also: MCA/DNP internal quench labels, places not given here) showed Probe Cleavage (pM/s) MMP2 equal to 11700
